Source listed as patent US20250277057A1.

- Target: T1, human activated protein C (human, UniProt P04070 43-197; P04070 212-461)
- T1 construct: In the plasma assays aPC is generated in human plasma with Protac; also called aPC; haPC
- Protocol description: KD ELISA ranking, direct antigen coating ELISA of Fab
Measure: Bmax
Answer using only a numeral; do not append any unit.

So, R2-29D9 (Fab, V domains shown, Combinatorial mutant Fab of HAPC-14; also called combinatorial mutant No. 7) VH: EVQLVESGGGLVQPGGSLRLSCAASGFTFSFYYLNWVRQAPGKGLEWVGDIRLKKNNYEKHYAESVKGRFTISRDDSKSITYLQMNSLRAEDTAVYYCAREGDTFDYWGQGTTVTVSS VL: DIQLTQSPSSLSASVGDRVTITCRASESVDSFGATFMHWYQQKPGKAPKLLIYLASRLPSGVPSRFSGSGSGTDFTLTISSLQPEDFATYYCVQNNEDPYTFGQGTKLEIK ? Its Bmax was 0.96
